The reader will find reported inhibition values listed item by item below.
# target: Dual specificity tyrosine-phosphorylation-regulated kinase 2 (Homo sapiens);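 further: values are mean percent inhibition of DYRK2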
# Sequence (whole entry): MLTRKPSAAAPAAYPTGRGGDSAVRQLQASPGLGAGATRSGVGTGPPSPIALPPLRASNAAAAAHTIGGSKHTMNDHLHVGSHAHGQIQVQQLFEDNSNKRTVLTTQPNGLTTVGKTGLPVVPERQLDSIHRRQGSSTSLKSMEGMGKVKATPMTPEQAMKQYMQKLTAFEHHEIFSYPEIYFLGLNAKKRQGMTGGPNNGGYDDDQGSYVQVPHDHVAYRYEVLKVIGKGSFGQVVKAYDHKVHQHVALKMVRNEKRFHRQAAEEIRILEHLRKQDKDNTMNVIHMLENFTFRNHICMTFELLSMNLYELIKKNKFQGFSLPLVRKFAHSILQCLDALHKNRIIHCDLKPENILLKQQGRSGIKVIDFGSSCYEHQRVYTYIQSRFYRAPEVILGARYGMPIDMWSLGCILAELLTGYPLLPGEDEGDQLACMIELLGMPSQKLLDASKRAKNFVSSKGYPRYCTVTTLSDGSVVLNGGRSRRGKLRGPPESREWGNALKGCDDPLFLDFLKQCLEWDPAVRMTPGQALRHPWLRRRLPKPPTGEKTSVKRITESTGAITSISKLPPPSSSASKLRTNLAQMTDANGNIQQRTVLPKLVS
# condition_parameters: at 0.1 µM
Value expressed in %; do not type the unit.

Cc1ccc(NC(=O)c2ccoc2)cc1-c1ccc(C(=O)NCC2CC2)cc1 = 1.99

Task item: What value of inhibition has been recorded for this entry: `O=C(Nc1n[nH]c2cc(-c3ccccc3)ccc12)C1CC1`
Reply: 2.82

Task item: What value of inhibition has been recorded for this entry: `COc1ccc2ncn(-c3cc(O[C@H](C)c4ccccc4Cl)c(C(N)=O)s3)c2c1`
Reply: 2.27

Task item: What value of inhibition has been recorded for this entry: `COc1cc2ncn(-c3cc(OCc4ccccc4C(F)(F)F)c(C(C)=O)s3)c2cc1OC`
Reply: 1.35

Task item: What value of inhibition has been recorded for this entry: `COc1cccc(/C=N/Nc2ncnc3c2cnn3-c2cccc(OC)c2)c1`
Reply: 2.19

Task item: What value of inhibition has been recorded for this entry: `CN(C)CCOc1ccc(-c2cc(-c3ccc4c(c3)CCC4=NO)c(-c3ccncc3)o2)cc1`
Reply: -1.36

Task item: What value of inhibition has been recorded for this entry: `CN(C)c1ccc2c(c1)/C(=C/Nc1ccc(S(N)(=O)=O)cc1)C(=O)N2`
Reply: 1.54

Task item: What value of inhibition has been recorded for this entry: `COc1ccc2cc(-c3c(-c4ccncc4)nc(-c4ccc(S(C)(=O)=O)cc4C)n3C)ccc2c1`
Reply: 3.55

Task item: What value of inhibition has been recorded for this entry: `CN(C)CCCNc1nccc(-c2c(-c3ccc(F)cc3)nn3cc(C(F)(F)F)ccc23)n1`
Reply: 1.01

Task item: What value of inhibition has been recorded for this entry: `O=C(Nc1n[nH]c2cc(-c3cc(F)ccc3F)ccc12)C1CC1`
Reply: 2.2

Task item: What value of inhibition has been recorded for this entry: `NCc1ccc(-n2c(-c3nonc3N)nc3cnccc32)cc1`
Reply: 3.41

Task item: What value of inhibition has been recorded for this entry: `Fc1ccc(-c2nc3n(c2-c2ccncc2)CCS3)cc1`
Reply: 2.91
